TARGET_UNDER_TEST: T1, human SEMA4D, full length, on CHO-K1 cells (CHO-K1 hSEMA4D) (human, UniProt Q92854 22-862)
T1 construct: whole, on cells; also called human SEMA4D recombinant cells
T1 sequence (looked up): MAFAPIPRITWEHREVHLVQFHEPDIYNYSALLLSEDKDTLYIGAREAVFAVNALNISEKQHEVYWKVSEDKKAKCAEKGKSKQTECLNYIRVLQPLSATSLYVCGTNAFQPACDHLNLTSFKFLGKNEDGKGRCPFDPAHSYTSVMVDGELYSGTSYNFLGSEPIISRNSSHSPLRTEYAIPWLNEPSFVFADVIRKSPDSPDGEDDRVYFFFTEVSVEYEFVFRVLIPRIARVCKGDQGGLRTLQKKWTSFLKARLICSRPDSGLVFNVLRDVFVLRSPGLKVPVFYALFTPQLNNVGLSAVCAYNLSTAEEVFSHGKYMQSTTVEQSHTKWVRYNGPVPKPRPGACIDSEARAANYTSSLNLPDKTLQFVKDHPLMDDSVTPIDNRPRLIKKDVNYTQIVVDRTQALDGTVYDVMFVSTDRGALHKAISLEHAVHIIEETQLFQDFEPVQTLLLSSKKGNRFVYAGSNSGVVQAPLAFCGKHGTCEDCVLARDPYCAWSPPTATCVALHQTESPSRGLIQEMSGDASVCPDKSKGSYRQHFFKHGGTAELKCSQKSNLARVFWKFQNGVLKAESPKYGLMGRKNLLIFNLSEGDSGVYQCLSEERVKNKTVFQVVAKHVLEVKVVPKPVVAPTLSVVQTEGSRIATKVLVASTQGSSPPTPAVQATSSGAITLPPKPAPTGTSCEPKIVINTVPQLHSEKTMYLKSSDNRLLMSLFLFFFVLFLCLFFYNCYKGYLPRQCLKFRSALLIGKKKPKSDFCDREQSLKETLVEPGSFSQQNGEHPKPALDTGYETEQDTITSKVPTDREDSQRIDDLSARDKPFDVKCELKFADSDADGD
TEST_METHOD_NOTES: FACS, CHO-K1 hSEMA4D cells; Ab 66.7 nM

{"BINDER": "42B7G2 (antibody, V domains shown, Mouse monoclonal antibody purified from hybridoma supernatant on protein A) VH: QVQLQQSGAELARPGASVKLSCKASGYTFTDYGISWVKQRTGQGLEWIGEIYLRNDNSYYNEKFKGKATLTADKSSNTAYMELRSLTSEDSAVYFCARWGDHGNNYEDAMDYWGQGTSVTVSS VL: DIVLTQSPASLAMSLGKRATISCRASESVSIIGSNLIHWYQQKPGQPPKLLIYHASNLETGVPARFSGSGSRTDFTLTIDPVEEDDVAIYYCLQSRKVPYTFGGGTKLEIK", "MFI": 4120}
{"BINDER": "32C8F10 (antibody, V domains shown, Mouse monoclonal antibody purified from hybridoma supernatant on protein A) VH: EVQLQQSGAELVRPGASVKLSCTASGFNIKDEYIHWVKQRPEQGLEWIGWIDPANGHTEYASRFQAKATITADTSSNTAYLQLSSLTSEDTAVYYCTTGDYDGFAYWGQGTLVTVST VL: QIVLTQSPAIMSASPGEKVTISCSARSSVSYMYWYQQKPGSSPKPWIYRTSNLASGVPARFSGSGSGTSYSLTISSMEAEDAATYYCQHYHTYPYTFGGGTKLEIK", "MFI": 8760}
{"BINDER": "37F11F9 (antibody, V domains shown, Mouse monoclonal antibody purified from hybridoma supernatant on protein A) VH: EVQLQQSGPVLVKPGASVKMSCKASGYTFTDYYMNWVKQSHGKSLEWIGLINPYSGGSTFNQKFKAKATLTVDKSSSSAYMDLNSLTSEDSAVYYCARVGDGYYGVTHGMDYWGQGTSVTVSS VL: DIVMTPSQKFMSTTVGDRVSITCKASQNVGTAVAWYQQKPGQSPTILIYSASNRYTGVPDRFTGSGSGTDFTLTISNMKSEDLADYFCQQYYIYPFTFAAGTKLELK", "MFI": 4110}
{"BINDER": "31G10C5 (antibody, V domains shown, Mouse monoclonal antibody purified from hybridoma supernatant on protein A) VH: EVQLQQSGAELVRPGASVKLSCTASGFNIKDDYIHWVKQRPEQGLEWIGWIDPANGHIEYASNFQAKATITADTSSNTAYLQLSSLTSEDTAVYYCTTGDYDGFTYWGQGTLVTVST VL: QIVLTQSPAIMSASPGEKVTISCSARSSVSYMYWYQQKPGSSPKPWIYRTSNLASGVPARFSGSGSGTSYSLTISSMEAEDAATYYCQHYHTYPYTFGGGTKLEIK", "MFI": 7410}
